observed.property: pIC50
Keep in mind that pIC50 stands for -log10 of concentration in molar terms.

[ask] Missing value: pIC50, Acetylcholinesterase (Homo sapiens), entry CC[C@H]1O[C@@H]2O[C@H](/C=C/C=C/C=C/c3oc(=O)cc(OC/C=C(\C)C(=O)OC)c3C)[C@H](O)[C@]2(C)[C@@]1(C)O . Fill in?
[reply] 4.83

* * *

- test.summary: Antiproliferative activity against human HCT116 cells assessed as cell viability after 72 hrs by SRB assay
- Format: functional, cell-based
- protocol.conditions: HCT-116, 72 h
observed.property: pIC50
Keep in mind that pIC50 stands for -log10 of concentration in molar terms.

[ask] Form field: reported pIC50 of COC(=O)/C(C)=C/COc1cc(=O)oc(/C=C/C=C/C=C/[C@H]2O[C@H]3O[C@H](C)[C@](C)(O)[C@@]3(C)[C@H]2O)c1C
[reply] 4.68

[ask] Form field: reported pIC50 of CC[C@H]1O[C@@H]2O[C@H](/C=C/C=C/C=C/c3oc(=O)cc(OCC=C(C)C)c3C)[C@H](O)[C@]2(C)[C@@]1(C)O
[reply] 4.36

[ask] Form field: reported pIC50 of CC[C@H]1O[C@@H]2O[C@H](/C=C/C=C/C=C/c3oc(=O)c4c(c3C)O[C@H](C)C4(C)C)[C@H](O)[C@]2(C)[C@@]1(C)O
[reply] 4.30
